Listing: AC50 of selected molecules
- measured.target: Paired box protein Pax-8 (Homo sapiens)
- Sequence (Q06710 whole entry): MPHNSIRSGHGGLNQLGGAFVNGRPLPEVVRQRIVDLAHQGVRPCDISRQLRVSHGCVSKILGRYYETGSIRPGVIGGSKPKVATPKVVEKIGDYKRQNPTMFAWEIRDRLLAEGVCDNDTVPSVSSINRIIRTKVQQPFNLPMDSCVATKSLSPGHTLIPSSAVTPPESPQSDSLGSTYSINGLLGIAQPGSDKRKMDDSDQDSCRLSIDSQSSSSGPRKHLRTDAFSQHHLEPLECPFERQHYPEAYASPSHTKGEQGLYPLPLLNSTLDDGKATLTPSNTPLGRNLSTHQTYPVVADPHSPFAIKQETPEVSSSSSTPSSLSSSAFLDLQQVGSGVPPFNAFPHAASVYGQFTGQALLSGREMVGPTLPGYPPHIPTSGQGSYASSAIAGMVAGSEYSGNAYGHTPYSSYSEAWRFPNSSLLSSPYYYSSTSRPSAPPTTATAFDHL
- protocol.text: PAX8 transcriptional activity inhibition in RMG-I – RMG-I cells, luciferase, cherry-pick, dose response (AID 687027);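 further: luciferase reporter driven by Pax8 target thyroperoxidase promoter measured by SteadyGlo luminescence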
- Assay type: functional, cell-based
The source made the active and inactive calls. How the calls were made is not given here.

Below are worked cases with known answers.
O=C(C[C@H]1CC[C@H]2[C@@H](COC[C@@H](O)CN2Cc2ccc(F)cc2)O1)NCc1ccccc1Cl = 23.7 µM (active)
Cc1cc(O)c(C(C)C)cc1C1(c2cc(C(C)C)c(O)cc2C)OC(=O)c2ccccc21 = 8.19 µM (active)
C[C@@H]1CCCCO[C@H](CN(C)Cc2ccncc2)[C@H](C)CN([C@@H](C)CO)C(=O)c2cc(NC(=O)NC3CCCCC3)ccc2O1 = 11.3 µM (active)

Task: // returns reported AC50 for input C[C@@H]1CN([C@H](C)CO)C(=O)c2cc(NC(=O)Nc3ccc(F)cc3)ccc2O[C@@H](C)CCCCO[C@@H]1CN(C)Cc1ccc2c(c1)OCO2
Output: 10.9 µM (active)

Task: Suppose we examine the molecule Cc1cc(NC(=O)c2ccc([N+](=O)[O-])o2)ccc1NC(=O)c1ccco1 ; what AC50 value has been reported?
Output: 5.2 µM (active)

Task: For the molecule Cc1ccc(S(=O)(=O)N(C)C[C@H]2OCCCC[C@H](C)Oc3ccc(NS(=O)(=O)c4ccc(F)cc4)cc3C(=O)N([C@H](C)CO)C[C@@H]2C)cc1 , what AC50 is on record?
Output: 3.32 µM (active)

Task: Can you share its AC50? I mean this molecule: C#CC(=O)N(c1ccc(OC)cc1OC)C(C(=O)NC1CCCC1)c1cccs1 (stereo not drawn)
Output: < 0.26 µM (active)

Task: So what does the record say about AC50 for C[C@H]1CCCCO[C@H](CN(C)C(=O)Nc2cccc3ccccc23)[C@@H](C)CN([C@@H](C)CO)C(=O)c2cc(NS(=O)(=O)c3ccc(Cl)cc3)ccc2O1 ?
Output: 4.51 µM (active)

* * *

- measured.target: Calpain-2 catalytic subunit (Sus scrofa, UniProt P43367)
- Sequence (P43367 whole entry): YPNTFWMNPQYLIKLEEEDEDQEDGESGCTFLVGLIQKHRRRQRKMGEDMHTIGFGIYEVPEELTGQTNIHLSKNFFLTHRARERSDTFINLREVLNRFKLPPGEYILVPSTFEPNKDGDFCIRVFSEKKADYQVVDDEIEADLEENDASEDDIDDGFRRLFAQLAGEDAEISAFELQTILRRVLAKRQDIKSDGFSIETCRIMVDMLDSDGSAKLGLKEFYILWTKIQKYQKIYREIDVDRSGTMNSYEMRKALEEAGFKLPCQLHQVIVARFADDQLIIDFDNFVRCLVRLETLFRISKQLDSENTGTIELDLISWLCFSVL
- protocol.text: m-calpain protease blockers, concentration series – biochemical, fluorogenic peptide substrate, dose response (AID 1420)
- Format: functional
Property: IC50; scope: individual compounds

# count of solved cases: 3
Brc1ccc(CSc2nnc(Cc3c[nH]c4ccccc34)o2)cc1 = 5.75 µM (not active)
O=C(c1cc2cc([N+](=O)[O-])ccc2s1)N1CCCCC1 = 43.1 µM (not active)
O=C(CN1C(=O)/C(=C/c2cccc(Br)c2)SC1=S)NC1=NCCS1 = > 50 µM (not active)

Task: Item O=C(CSc1ccccn1)C12CC3CC(CC(C3)C1)C2 with Calpain-2 catalytic subunit (Sus scrofa, UniProt P43367) - IC50?
Output: > 50 µM (not active)

Task: Tell me reported IC50 for COc1ccc(OC)c(NC(=O)COC(=O)CSc2ccc(Cl)cc2)c1 , tested with Calpain-2 catalytic subunit (Sus scrofa, UniProt P43367).
Output: 15.5 µM (not active)

Task: Kindly state the measured IC50 obtained for Cn1nc(C(=O)OCC(=O)N2CCc3ccccc32)c2ccccc2c1=O with Calpain-2 catalytic subunit (Sus scrofa, UniProt P43367).
Output: > 50 µM (not active)

Task: Please provide the recorded IC50 for O=C(CCC1CCCCC1)Nc1ccc(C(=O)c2ccncc2)cc1 , tested on Calpain-2 catalytic subunit (Sus scrofa, UniProt P43367).
Output: 7.01 µM (not active)

Task: Field: IC50 (Calpain-2 catalytic subunit (Sus scrofa, UniProt P43367)). Entry: CCc1ccc(OCc2nnc(S)n2Cc2ccccc2)cc1
Output: 4.01 µM (not active)
